Test: Assessment of brain penetrability in mice (plasma and brain PK)
Format: in vivo
Conditions: male, BALB/cAJcl-nu/nu, mouse, oral; 40 mg/kg; brain AUC0-24 hr / plasma AUC0-24 hr
measured_property: Kp

QUERY: Give its Kp value. Item: `C#Cc1c(-c2cnc3ccccc3c2)c2c(N)ncnc2n1C12CCC(NC(=O)c3cnc(C)cn3)(CC1)C2`
RESULT: 0.51

* * *

Target: human recombinant EGFR Ex19del/T790M (Homo sapiens, UniProt P00533, DEL746-750/T790M)
Sequence (P00533 with tags, fused parts or gaps DEL746-750/T790M limits assumed): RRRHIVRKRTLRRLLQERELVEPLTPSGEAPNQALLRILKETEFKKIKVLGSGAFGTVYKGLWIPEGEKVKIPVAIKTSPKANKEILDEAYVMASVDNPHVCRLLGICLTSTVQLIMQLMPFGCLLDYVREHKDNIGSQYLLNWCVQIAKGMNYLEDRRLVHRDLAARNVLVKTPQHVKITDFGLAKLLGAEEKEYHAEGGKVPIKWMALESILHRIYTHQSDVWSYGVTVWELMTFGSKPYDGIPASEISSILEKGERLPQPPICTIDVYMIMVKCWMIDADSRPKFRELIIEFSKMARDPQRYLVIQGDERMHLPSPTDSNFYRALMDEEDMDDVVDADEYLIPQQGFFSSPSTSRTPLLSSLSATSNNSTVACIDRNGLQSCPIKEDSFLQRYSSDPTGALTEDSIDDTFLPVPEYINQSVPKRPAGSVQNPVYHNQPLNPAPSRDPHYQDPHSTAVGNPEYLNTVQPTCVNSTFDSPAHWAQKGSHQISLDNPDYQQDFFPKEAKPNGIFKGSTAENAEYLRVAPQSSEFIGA
Assay: EGFR biochemical kinetics assay (PhosphoSens Kinase Assay), Ki
measured_property: Ki
Quick note: number first, unit second.

QUERY: Give its Ki value. Item: C#Cc1c(-c2cnc3ccccc3c2)c2c(N)ncnc2n1C12CCC(NC(=O)c3cnc(C)cn3)(CC1)C2 [TAS3351]
RESULT: 6.49 pM

* * *

Test: Assessment of brain penetrability in mice (plasma and brain PK)
Assay type: in vivo
Details: male, BALB/cAJcl-nu/nu, mouse, brain, oral, 40 mg/kg; unbound brain AUC / unbound plasma AUC
measured_property: Kp uu

QUERY: Give its Kp uu value. Item: `C#Cc1c(-c2cnc3ccccc3c2)c2c(N)ncnc2n1C12CCC(NC(=O)c3cnc(C)cn3)(CC1)C2`
RESULT: 1.08
